Consider the following molecules and their measured MTD at 504 h readings.
Assay: Toxicity in ip dosed ICR mouse up to 3 weeks
Format: organism-based
Conditions: in vivo
Give a bare numeral; the unit mg/kg is implied.

Illustrative cases are given below, each with its answer.
CCCCC(=O)O[C@H]1[C@H]2Oc3nc(=N)ccn3[C@@H]2O[C@@H]1COP(=O)(O)O
750
CC(C)(C)c1ccc(C(=O)OC[C@H]2O[C@@H]3[C@H](Oc4nc(=N)ccn43)[C@@H]2OC(=O)c2ccc(C(C)(C)C)cc2)cc1.Cl
300

// switching to the query molecule
Would you mind telling me what MTD at 504 h value was observed for CCCC(=O)OCCCCCCCCCCC(=O)OC[C@H]1O[C@@H]2[C@H](Oc3nc(=N)ccn32)[C@@H]1OC(=O)CCCCCCCCCCOC(=O)CCC.Cl ?
300

----------
MTD at 504 h values by entry
Assay: Toxicity in ip dosed ICR mouse up to 3 weeks
Type: organism-based
Conditions: in vivo
Output spec: scalar in mg/kg, unitless text.

Cl.N=c1ccn2c(n1)O[C@@H]1[C@H](OC(=O)c3ccc(Cl)cc3)[C@@H](COC(=O)c3ccc(Cl)cc3)O[C@H]12
750

Requested read-out: MTD at 504 h. Entry: Cc1ccc(S(=O)(=O)NCCCCCCCCCCC(=O)OC[C@H]2O[C@@H]3[C@H](Oc4nc(=[NH2+])ccn43)[C@@H]2OC(=O)CCCCCCCCCCNS(=O)(=O)c2ccc(C)cc2)cc1.F[B-](F)(F)F
500

// next record CCCCCCCCCCCOC(=O)CCC(=O)OC[C@H]1O[C@@H]2[C@H](Oc3nc(=N)ccn32)[C@@H]1OC(=O)CCC(=O)OCCCCCCCCCCC.Cl
750

----------
Test: Toxicity in ip dosed ICR mouse up to 3 weeks
Type: organism-based
Conditions: in vivo
// MTD at 504 h lookup, one value per entry

Completed entries (count: 2):
CCOC(=O)CCC(=O)OC[C@H]1O[C@@H]2[C@H](Oc3nc(=N)ccn32)[C@@H]1OC(=O)CCC(=O)OCC.Cl
> 1000 mg/kg
CC(C)(C)C(=O)O[C@H]1[C@H]2Oc3nc(=N)ccn3[C@@H]2O[C@@H]1COC(=O)CCCCCCC(=O)OC[C@H]1O[C@@H]2[C@H](Oc3nc(=N)ccn32)[C@@H]1OC(=O)C(C)(C)C.Cl
< 300 mg/kg

Any idea what its MTD at 504 h is? The compound is CC(=O)O[C@H]1[C@H]2Oc3nc(=N)ccn3[C@@H]2O[C@@H]1COP(=O)(O)O
> 1500 mg/kg
